Origin of values: patent US20210284647A1

target: UniProt:Q13546
Sequence (Q13546 1-375 limits assumed): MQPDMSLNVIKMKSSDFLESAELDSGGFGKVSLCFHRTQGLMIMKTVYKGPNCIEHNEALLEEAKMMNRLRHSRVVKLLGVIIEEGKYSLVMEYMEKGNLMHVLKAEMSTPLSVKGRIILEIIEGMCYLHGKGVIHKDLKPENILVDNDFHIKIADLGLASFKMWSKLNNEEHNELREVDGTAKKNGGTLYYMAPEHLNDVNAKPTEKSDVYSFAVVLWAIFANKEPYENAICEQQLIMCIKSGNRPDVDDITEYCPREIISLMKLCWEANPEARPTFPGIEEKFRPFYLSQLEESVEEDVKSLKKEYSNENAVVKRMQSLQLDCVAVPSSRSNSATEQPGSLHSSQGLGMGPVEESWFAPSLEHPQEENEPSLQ
endpoint: pIC50
Interpret pIC50 as the negative base-10 log of the concentration measured in mol/L.

compound	assay-system	recorded-number
O=C(Nc1cccc(C#Cc2cnc3cccnn23)c1)N1N=CCC1c1ccccn1 (stereo not shown) [Example 37, 2,2,2-trifluoroacetate]	UniProt:Q13546	8.91

The measured pIC50 that Cc1ccc(NC(=O)N2N=CCC2c2cccc(F)c2)cc1C#Cc1cnc2cccnn12 (stereo not shown) [Example 8, 2,2,2-trifluoroacetate] showed for UniProt:Q13546 is 7.08

* * *

system: human Jurkat T cells deficient in FADD; experiment: Cell protection effect under apoptosis-inducing condition (TNF-α); assay type: cell-based; details: 40 ng of TNF-α, 50 hours, CellTiter-Glo, read-out: I2.I Cell EC50
endpoint: EC50 (nM)
I only need the number, in nM, no unit after it.

molecule	assay-system	unit-spec	recorded-number
O=C(Nc1cccc(C#Cc2cnc3cccnn23)c1)N1N=CCC1c1ccccc1 (stereo not shown) [Example 19, 2,2,2-trifluoroacetate]	human Jurkat T cells deficient in FADD	nM	0.26
Cc1ccc(NC(=O)N2N=CC[C@@H]2c2cccc(F)c2)cc1C#Cc1cnc2cccnn12 [Example 10, 2,2,2-trifluoroacetate]	human Jurkat T cells deficient in FADD	nM	326
O=C(Nc1cccc(C#Cc2cnc3ncccn23)c1)N1N=CCC1c1ccccc1 (stereo not shown)	human Jurkat T cells deficient in FADD	nM	3.6

Then this molecule:
molecule O=C(Nc1ccc(F)c(C#Cc2cnc3cccnn23)c1)N1N=CCC1c1ccccc1 (stereo not shown) [Example 44, 2,2,2-trifluoroacetate] , EC50 observed: 0.37
